# difference in habituation to acoustic stimuli annotations
test system: Danio rerio larvae (5 dpf); experiment: difference in habituation to acoustic stimuli vs DMSO (percentage points); higher = more habituation than DMSO; settings: 10 µM; exposure time 6 h
Structures can show the parent of a compound that is named as a salt.
Form field (numeric): enter value without unit.

Solved cases (2 shown):
Lookup: Using the record for CCOc1cc([C@@H](CS(C)(=O)=O)N2C(=O)c3cccc(NC(C)=O)c3C2=O)ccc1OC [Apremilast] , state its measured difference in habituation to acoustic stimuli.
Found: -0.561

Lookup: Using the record for CN1CCN(CCCN2c3ccccc3Sc3ccc(C(F)(F)F)cc32)CC1 [Trifluoperazine (hydrochloride)] , state its measured difference in habituation to acoustic stimuli.
Found: -10.9

More entries:
Lookup: Using the record for CC(C)(Oc1ccc(C(=O)c2ccc(Cl)cc2)cc1)C(=O)O [Fenofibric Acid] , state its measured difference in habituation to acoustic stimuli.
Found: 0.387

Lookup: Using the record for Cc1nccn1CC1CCc2c(c3ccccc3n2C)C1=O (centres undefined) [Ondansetron (hydrochloride hydrate)] , state its measured difference in habituation to acoustic stimuli.
Found: -3.59

Lookup: Using the record for Oc1ccc(C2CNCCc3c2cc(O)c(O)c3Cl)cc1 (centres undefined) [Fenoldopam (mesylate)] , state its measured difference in habituation to acoustic stimuli.
Found: -1.52

Origin of values: the supplement of paper PMC10515830
